Assay: self-splicing fitness, log relative to wild type (ln ratio); higher = more splicing; Tetrahymena group I intron in knt gene, E. coli kanamycin selection, DiMSum; sequences stand for … in CUCUCU…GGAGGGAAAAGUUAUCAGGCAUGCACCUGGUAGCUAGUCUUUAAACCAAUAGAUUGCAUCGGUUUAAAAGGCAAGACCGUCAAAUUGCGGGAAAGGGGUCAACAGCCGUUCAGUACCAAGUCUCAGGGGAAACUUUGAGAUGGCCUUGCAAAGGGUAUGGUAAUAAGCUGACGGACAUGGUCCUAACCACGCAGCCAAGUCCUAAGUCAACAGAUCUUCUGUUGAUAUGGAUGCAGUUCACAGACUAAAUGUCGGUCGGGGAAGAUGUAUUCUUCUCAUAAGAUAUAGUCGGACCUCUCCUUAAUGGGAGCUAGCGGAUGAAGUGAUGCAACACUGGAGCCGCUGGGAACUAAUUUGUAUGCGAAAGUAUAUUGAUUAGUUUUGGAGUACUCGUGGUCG;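 note: selection with 25 µg/mL kanamycin versus none on LB agar overnight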
Details: 37 °C
observed-property: self-splicing fitness (ln)
Form: value (number only, do not type unit).

Sample records with self-splicing fitness (ln):
# item-sequence, self-splicing fitness (ln)
data = [
    ("GGAUAGCAAUAUUACGGUCA", -0.0595),
    ("AAACAGCAAUAUUACGUCCG", -0.645),
    ("GAUUAGCAAUAUUACGCGAC", -2.32),
]

Query block: // returns reported self-splicing fitness (ln) for input ACCGAGCAAUAUUACGGAGG
Result block: -2.72

Query block: // returns reported self-splicing fitness (ln) for input UCACAGCAAUAUUACGAAGA
Result block: -1.09

Query block: // returns reported self-splicing fitness (ln) for input AUAUAGCAAUAUUACGAACA
Result block: -0.183

----------
Assay: self-splicing fitness, log relative to wild type (ln ratio); higher = more splicing; Tetrahymena group I intron in knt gene, E. coli kanamycin selection, DiMSum; sequences stand for … in CUCUCU…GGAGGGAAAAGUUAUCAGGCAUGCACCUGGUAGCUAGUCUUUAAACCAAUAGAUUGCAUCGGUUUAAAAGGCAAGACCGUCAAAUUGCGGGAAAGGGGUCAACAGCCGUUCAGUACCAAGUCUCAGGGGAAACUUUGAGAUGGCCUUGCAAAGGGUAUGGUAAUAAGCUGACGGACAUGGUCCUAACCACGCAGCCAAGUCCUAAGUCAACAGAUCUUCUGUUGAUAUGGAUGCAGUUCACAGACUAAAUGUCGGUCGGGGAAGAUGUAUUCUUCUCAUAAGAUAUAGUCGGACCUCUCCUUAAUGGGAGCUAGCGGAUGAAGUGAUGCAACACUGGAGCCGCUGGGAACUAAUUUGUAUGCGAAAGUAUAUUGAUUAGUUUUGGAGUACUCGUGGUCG
Settings: 30 °C
Values of self-splicing fitness (ln) greater than or equal to -2 map to MET; values below map to NOT MET.

# item-sequence, cat
data = [
    ("UACAAGCAAUAUUACGUAUC", "NOT MET"),
    ("AGCCAGCAAUAUUACGCUAU", "MET"),
    ("AAAGAGCAAUAUUACGUUGG", "NOT MET"),
    ("GUCUAGCAAUAUUACGCAUC", "MET"),
    ("UUUUAGCAAUAUUACGGUCU", "NOT MET"),
    ("UUGAAGCAAUAUUACGACCG", "MET"),
]

Next sequence, please.
Query block: Determine whether measured self-splicing fitness (ln) meets or exceeds -2 for UAUGAGCAAUAUUACGUUUC
Result block: NOT MET

Origin of measurements: the supplement of paper PMC7877785
